// values below are reported fold induction at 10 µM
Molecular target: SFRP-1 (Homo sapiens, UniProt Q8N474)
Sequence (Q8N474 32-314): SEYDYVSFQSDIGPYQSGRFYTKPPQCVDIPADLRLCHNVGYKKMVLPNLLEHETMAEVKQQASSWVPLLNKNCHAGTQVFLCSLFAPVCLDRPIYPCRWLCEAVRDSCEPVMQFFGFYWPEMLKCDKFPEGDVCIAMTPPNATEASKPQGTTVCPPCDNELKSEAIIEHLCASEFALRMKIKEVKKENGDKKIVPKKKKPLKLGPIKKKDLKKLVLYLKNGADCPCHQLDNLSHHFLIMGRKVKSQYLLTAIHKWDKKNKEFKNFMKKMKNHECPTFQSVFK
Test: Cell-based assay for in vitro measurement of SFRP-1/SARP2 antagonist activity (U2OS cells co-transfected with 16x TCF-tk-Luciferase reporter, Wnt and hSFRP-1);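 note: U2OS cells co-transfected with a TCF-tk luciferase reporter, a Wnt vector, hSFRP-1 or empty vector and CMV-βgal, luciferase luminescence read in cell lysates alongside βgal activity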
Conditions: U2OS, read-out: Fold Induction with SFRP-1, U2OS cells, single dose 10 μM, luciferase reporter, fold induction over SFRP-1 control
Form field (numeric): enter value without unit.

Known fold induction at 10 µM results, listed for orientation:
query.smiles: O=S(=O)(NCCc1cccnc1)c1cc(S(=O)(=O)c2ccccc2)ccc1OC(F)(F)F
fold induction at 10 µM: 4.9

query.smiles: O=S(=O)(NC1CCNCC1)c1cc(S(=O)(=O)c2ccc(NCCO)cc2)ccc1C(F)(F)F
fold induction at 10 µM: 4.4

query.smiles: O=S(=O)(NCCn1ccnc1)c1cc(S(=O)(=O)c2ccccc2F)ccc1C(F)(F)F
fold induction at 10 µM: 3.8

query.smiles: CN(CCNS(=O)(=O)c1cc(S(=O)(=O)c2ccccc2)ccc1C(F)(F)F)C(=O)N1CCN(C(=O)OC(C)(C)C)CC1
fold induction at 10 µM: 2.3

query.smiles: CC(C)(C)c1ccc(C(=O)N2CCC(NS(=O)(=O)c3cc(S(=O)(=O)c4cccc(O)c4)ccc3C(F)(F)F)CC2)cc1
fold induction at 10 µM: 0.6

What measured fold induction at 10 µM is associated with CN(CCNS(=O)(=O)c1cc(S(=O)(=O)c2ccccc2)ccc1C(F)(F)F)C(=O)NCC(=O)O on SFRP-1 (Homo sapiens, UniProt Q8N474)? 2.1

What measured fold induction at 10 µM is associated with O=S(=O)(NCCN1CCOCC1)c1cc(S(=O)(=O)c2ccccc2)ccc1C(F)(F)F on SFRP-1 (Homo sapiens, UniProt Q8N474)? 2.7
